B1: Formin-binding protein 4, residues 200 to 261; numbered along this chain, Q8N3X1 (parent)
chain: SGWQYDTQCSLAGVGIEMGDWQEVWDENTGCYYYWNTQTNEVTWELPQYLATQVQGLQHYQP

Variants of: B1
Assay: abundance fitness (aPCA) (normalised: wild type 0, dead -1); higher = more abundant; growth selection in yeast, the domain comes from the species named
Settings: Homo sapiens
Decide by abundance fitness: equal to or exceeding -0.4 means TRUE, less means FALSE.

* I16K | FALSE
* I16G | FALSE
* Q38P | FALSE
* L46A | FALSE
* Y34K | FALSE
* E23P | FALSE
* Y33H | TRUE
* C9P | TRUE
* Q22T | TRUE
* V42W | FALSE
* G15V | FALSE
* A12V | TRUE
* T43R | TRUE
* T43Y | TRUE
* P47W | FALSE
* T7W | FALSE
* Q22F | FALSE
* L46F | FALSE
* Q8I | FALSE
* T29W | TRUE
* W25T | TRUE
* W35P | FALSE
* Y49M | TRUE
* I16A | TRUE
* G2T | TRUE
* V24R | TRUE
* W35T | TRUE
* H59A | TRUE
* T43L | TRUE
* T7Y | TRUE
* D26P | FALSE

Value source: the Human Domainome abundance scans (Beltran et al. 2025)
